Tested on: MCF7
Test: Cytotoxicity against human MCF7 cells after 72 hrs by MTT assay
Type: functional, cell-based
Details: MCF7, 72 h
pIC50: −log10 of the molar value.
Answer n if pIC50 is under 6, and y if it is 6 or more.

- compound.smiles: "CCCCCCCCCCCCCCCCOP(=O)([O-])OCC[N+](C)(CCC)CCC"
  target.of.assay: "MCF7"
  assigned.class: "n"
- compound.smiles: "CCCCCCCCCCCCCCCCOP(=O)([O-])OCC[N+]1(C)CCCC1"
  target.of.assay: "MCF7"
  assigned.class: "n"
- compound.smiles: "CCCCCCCCCCCCCCCCOP(=O)([O-])OCC[N+](C)(C)C"
  target.of.assay: "MCF7"
  assigned.class: "n"
- compound.smiles: "CCCCCCCCCCCCCCCCOP(=O)([O-])OCC[N+](C)(CC)CC"
  target.of.assay: "MCF7"
  assigned.class: "n"
- compound.smiles: "CCCCCCCCCCCCCCCC[N+](C)(CC)CC.[Br-]"
  target.of.assay: "MCF7"
  assigned.class: "y"
- compound.smiles: "CCCCCCCCCCCCCCCCOP(=O)([O-])OCC[N+]1(C)CCCCC1"
  target.of.assay: "MCF7"
  assigned.class: "n"
- compound.smiles: "CCCCCCCCCCCCCCCC[N+]1(C)CCCC1.[Br-]"
  target.of.assay: "MCF7"
  assigned.class: "y"
